# Lookup of reported Cyno T-cell Binding 0.2 uM (MFI) keyed by entry
# testSystem: T1, cynomolgus monkey CD8 alpha on primary cynomolgus CD8+ T cells (cynomolgus monkey, UniProt P01732 23-235 (human entry))
# T1 construct: also called Cyno CD8alpha; cyno CD8A
# T1 sequence (P01732 other isoform, or with tags, fused parts or gaps limits assumed): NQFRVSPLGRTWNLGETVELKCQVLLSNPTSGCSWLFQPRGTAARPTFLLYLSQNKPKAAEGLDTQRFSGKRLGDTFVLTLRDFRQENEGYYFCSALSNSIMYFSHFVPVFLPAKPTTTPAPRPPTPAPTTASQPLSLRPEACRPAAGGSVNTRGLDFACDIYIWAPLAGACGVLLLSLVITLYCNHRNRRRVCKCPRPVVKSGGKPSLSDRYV
# assayInfo: flow cytometry, cyno CD8+ T cells
# Protocol: Binding of the 190 ELISA hits to human and cynomologous monkey primary CD8 T cells was assessed by flow cytometry. The FN3 domain molecules were diluted to 2 μM and 0.2 μM in PBS and incubated with human or cynomologous monkey CD8+ T cells in 96-well format. […] Cells were gating on live cells and median fluorescence intensity of the bound Centyrins (PE channel) was calculated using Cytobank software.

>  <binder>
P283DR9P1364_F2 (designed binder, FN3 domain) LPAPKNLVVSRVTEDSARLSWTAPDAAFDSFWIAYPEWPVPGEAIVLTVPGSERSYDLTGLKPGTEYFVIIQGVKGGFGSFPLSAIFTT

>  <valueUnits>
MFI

>  <Cyno T-cell Binding 0.2 uM (MFI)>
16900

$$$$
>  <binder>
P283ER9P1365_A1 (designed binder, FN3 domain) LPAPKNLVVSRVTEDSARLSWTAPDAAFDSFGIAYVEWWHRGEAISLPVPGSERSYDLTGLKPGTEYNVIITGVKGGIPSHPLGAIFTT

>  <valueUnits>
MFI

>  <Cyno T-cell Binding 0.2 uM (MFI)>
1360

$$$$
>  <binder>
P283FR9P1366_F9 (designed binder, FN3 domain) LPAPKNLVVSRVTEDSARLSWTAPDAAFDSFHIFYPELPIAGEAIVLTVPGSERSYDLTGLKPGTEYWVNISGVKGGYESWPLSAIFTT

>  <valueUnits>
MFI

>  <Cyno T-cell Binding 0.2 uM (MFI)>
24600

$$$$
